Test system: hMPV A2 TN/94-49
Test: HMPV antiviral assay Method 2 (LLC-MK2 cells with CP-100-356, ATP-Lite)
Assay type: cell-based
Conditions: hMPV A2 TN/94-49, LLC-MK2 cells, 4 μM CP-100-356, Method 2
Reported Metric: EC50

Study these solved cases before continuing.
COc1cc(C(=O)NC[C@@](O)(c2ccccc2)c2cc3c(c(-c4cc(Cl)c(F)cc4F)n2)OC[C@]3(C)C(N)=O)cc2oc(C3(F)CC3)nc12 [Example 241] | < 200 nM
COc1cc(C(=O)NC[C@](O)(c2cc3c(c(-c4cc(Cl)c(F)cc4F)n2)OC[C@]3(C)C(N)=O)c2nccs2)cc2cn(C3CC3)nc12 [Example 475] | < 200 nM
COc1cc(C(=O)NC[C@@](O)(c2cccc(F)c2)c2cc3c(c(-c4ccc5c(c4Cl)OC(F)(F)O5)n2)OC[C@]3(C)C(N)=O)cc2oc(C)nc12 [Example 285] | < 200 nM

Problem: Write down EC50 measured for item COc1cc(C(=O)NC[C@@](O)(c2ccc(F)cc2)c2cc3c(c(-c4ccc5c(c4Cl)OC(F)(F)O5)n2)OC[C@]3(C)C(N)=O)cc2cn(C3(F)CC3)nc12 [Example 263]
Result: < 200 nM

Problem: Write down EC50 measured for item COc1cc(C(=O)NC[C@@](O)(c2ccnc(N)c2)c2cc3c(c(-c4cc(Cl)c(F)cc4F)n2)OC[C@]3(C)C(N)=O)cc2cn(C3CC3)nc12 [Example 484]
Result: < 200 nM

Problem: Write down EC50 measured for item COc1cc(C(=O)NC[C@@](O)(c2ccccc2)c2cc3c(c(-c4cc(Cl)c(F)cc4F)n2)OC[C@]3(C)C(N)=O)cc2sc(N)nc12 [Example 157]
Result: < 200 nM

Problem: Write down EC50 measured for item C[C@]1(C(N)=O)COc2c1cc([C@@](O)(CNC(=O)c1cc(Cl)c3nc(C4CC4)oc3c1)c1ccccc1)nc2-c1cc(Cl)c(F)cc1F [Example 232]
Result: < 200 nM

Problem: Write down EC50 measured for item COc1cc(C(=O)NC[C@@](O)(c2ccccc2)c2cc3c(c(-c4cc(F)c(F)cc4F)n2)OC[C@]3(C)C(N)=O)cc2cn(C(F)F)nc12 [Example 172]
Result: < 200 nM

Problem: Write down EC50 measured for item C[C@]1(C(N)=O)COc2c1cc([C@@](O)(CNC(=O)c1ccc3nc(C4CC4)oc3c1)c1ccccc1)nc2-c1cc(C(F)F)c(F)cc1F [Example 311]
Result: < 200 nM

Problem: Write down EC50 measured for item COc1cc(C(=O)NC[C@@](O)(c2ccccc2)c2cc3c(c(-c4ccc(F)c(Cl)c4Cl)n2)OC[C@]3(C)C(N)=O)cc2cc(Cl)cnc12 [Example 294]
Result: < 200 nM

Problem: Write down EC50 measured for item C[C@]1(C(N)=O)COc2c1cc([C@@](O)(CNC(=O)c1cc(OC3CC3)n3nc(C4CC4)cc3c1)c1ccccc1)nc2-c1cc(Cl)c(F)cc1F [Example 191]
Result: < 200 nM

Problem: Write down EC50 measured for item COc1cc(C(=O)NC[C@@](O)(c2ccccc2)c2cc3c(c(-c4ccc5c(c4)OC(F)(F)O5)n2)OC[C@]3(C)C(N)=O)cc2cc(Cl)cnc12 [Example 202]
Result: < 200 nM

Problem: Write down EC50 measured for item COc1cc(C(=O)NC[C@@](O)(c2cnccn2)c2cc3c(c(-c4cc(Cl)c(F)cc4F)n2)OC[C@]3(C)C(N)=O)cc2cn(C3CC3)nc12 [Example 487]
Result: < 200 nM

====

Below, each entry is listed alongside its reported EC50.
Test system: hMPV A2 TN/94-49
Assay: HMPV antiviral assay Method 2 (LLC-MK2 cells with CP-100-356, ATP-Lite)
Assay type: cell-based
Settings: hMPV A2 TN/94-49, LLC-MK2 cells, 4 μM CP-100-356, Method 2

[2H]C([2H])([2H])c1nc2ccc(C(=O)NC[C@@](O)(c3cccc(F)c3)c3cc4c(c(-c5ccc6c(c5Cl)OC(F)(F)O6)n3)OC[C@]4(C)C(N)=O)cc2o1 [Example 282] | < 0.2 µM
COc1cc(C(=O)NC[C@@](O)(c2ccccc2)c2cc3c(c(-c4cc(F)c(F)cc4F)n2)OC[C@]3(C)C(N)=O)cc2oc(C3CC3)nc12 [Example 195] | < 0.2 µM

Problem: Write down EC50 measured for item C[C@]1(C(N)=O)COc2c1cc([C@@](O)(CNC(=O)c1cc(OC(F)F)c3nc(C4CC4)oc3c1)c1ccccc1)nc2-c1cc(Cl)c(F)cc1F [Example 216]
Result: < 0.2 µM

====

Below, each entry is listed alongside its reported EC50.
System: hMPV A2 TN/94-49
Test: HMPV antiviral assay Method 2 (LLC-MK2 cells with CP-100-356, ATP-Lite)
Assay type: cell-based
Conditions: hMPV A2 TN/94-49, LLC-MK2 cells, 4 μM CP-100-356, Method 2

Study these solved cases before continuing.
COc1cc(C(=O)NC[C@@](O)(c2ccccc2)c2cc3c(c(-c4ccc(F)c(Cl)c4Cl)n2)OC[C@]3(C)C(N)=O)cc2oc(C)nc12 | < 200 nM
Cc1cnc2c(OC3CC3)cc(C(=O)NC[C@@](O)(c3ccccc3)c3cc4c(c(-c5cc(Cl)c(F)cc5F)n3)OC[C@]4(C)C(N)=O)cc2c1 | < 200 nM

Problem: Write down EC50 measured for item `COc1cc(C(=O)NC[C@@](O)(c2ccccc2)c2cc3c(c(-c4cc(C(F)(F)F)c(F)cc4F)n2)OC[C@]3(C)C(N)=O)cc2cn(C3(F)CC3)nc12`
Result: < 200 nM

====

Below, each entry is listed alongside its reported pEC50.
Test system: hMPV A2 TN/94-49
Experiment: HMPV antiviral assay Method 2 (LLC-MK2 cells with CP-100-356, ATP-Lite)
Type: cell-based
Conditions: hMPV A2 TN/94-49, LLC-MK2 cells, 4 μM CP-100-356, Method 2
pEC50: −log10 of the molar value.

C[C@]1(C(N)=O)COc2c1cc([C@@](O)(CNC(=O)c1cc(OCCO)c3nn(C4CC4)cc3c1)C1CC1)nc2-c1ccc(F)c(Cl)c1F | > 6.70
COc1cc(C(=O)NC[C@@](O)(c2ccc(F)cc2)c2cc3c(c(-c4cc(Cl)c(F)cc4F)n2)OC[C@]3(C)C(N)=O)cc2cn(C3CC3)nc12 | > 6.70
COc1cc(C(=O)NCC(O)(c2ccc(F)cn2)c2cc3c(c(-c4cc(Cl)c(F)cc4F)n2)OC[C@]3(C)C(N)=O)cc2cn(C3CC3)nc12 (stereo partly shown) | > 6.70

Problem: Write down pEC50 measured for item `C[C@]1(C(N)=O)COc2c1cc([C@@](O)(CNC(=O)c1ccc3nc(C4CC4)oc3c1)c1ccccc1)nc2-c1cc(C(F)(F)F)c(F)cc1F`
Result: < 6.70

Problem: Write down pEC50 measured for item COc1cc(C(=O)NCC(O)(c2cc(F)nc(F)c2)c2cc3c(c(-c4cccc(Cl)c4Cl)n2)OC[C@]3(C)C(N)=O)cc2cn(C3CC3)nc12 (stereo partly shown)
Result: > 6.70

Problem: Write down pEC50 measured for item `COc1cc(C(=O)NC[C@@](O)(c2ccc(S(C)(=O)=O)cc2)c2cc3c(c(-c4cc(Cl)c(F)cc4F)n2)OC[C@]3(C)C(N)=O)cc2cn(C3CC3)nc12`
Result: < 6.70

Problem: Write down pEC50 measured for item `COc1cc(C(=O)NC[C@@](O)(c2ccccc2)c2cc3c(c(-c4cc(Cl)c(F)cc4F)n2)OC[C@]3(C)C(N)=O)cc2cc(Br)cnc12`
Result: > 6.70

Problem: Write down pEC50 measured for item `[2H]C([2H])([2H])NC(=O)[C@@]1(C)COc2c1cc([C@@](O)(CNC(=O)c1cc(OC)c3nn(C4(F)CC4)cc3c1)c1ccccc1)nc2-c1cc(Cl)c(F)cc1F`
Result: > 6.70

Problem: Write down pEC50 measured for item COc1cc(C(=O)NCC(O)(c2ccccc2)c2cc3c(c(-c4ccc(F)c(Cl)c4)n2)OC[C@]3(C)C(N)=O)cc2cn(C3(F)CC3)nc12 (stereo partly shown)
Result: > 6.70

====

Test system: hMPV A2 TN/94-49
Assay: HMPV antiviral assay Method 2 (LLC-MK2 cells with CP-100-356, ATP-Lite)
Format: cell-based
Conditions: hMPV A2 TN/94-49, LLC-MK2 cells, 4 μM CP-100-356, Method 2
Reported Metric: EC50

Study these solved cases before continuing.
COc1cc(C(=O)NC[C@@](O)(c2cccc(F)c2)c2cc3c(c(-c4cc(C(F)(F)F)c(F)cc4F)n2)OC[C@]3(C)C(N)=O)cc2oc(C3CC3)nc12 [Example 297] | < 200 nM
COc1cc(-c2nc([C@@](O)(CNC(=O)c3cc(OC)c4nn(C5(F)CC5)cc4c3)c3ccccc3)cc3c2OC[C@]3(C)C(N)=O)c(F)cc1F [Example 364] | > 200 nM

Please examine the following record next.
Problem: Write down EC50 measured for item COc1cc(C(=O)NC[C@@](O)(c2ccccc2)c2cc3c(c(-c4cc(Cl)ccc4F)n2)OC[C@]3(C)C(N)=O)cc2oc(C3CC3)nc12 [Example 331]
Result: < 200 nM
